Entries and their measured HLM QH [%] follow.
Assay: Metabolic (microsomal) stability assay, human liver microsomes (HLM)
Format: in vitro ADME
Conditions: 1 μM, predicted clearance as percent of liver blood flow
Protocol: The metabolic degradation of the test compound is assayed at 37° C. with pooled liver microsomes (mouse (MLM), rat (RLM) or human (HLM)). […] Additionally, the NADPH-independent degradation is monitored in incubations without NADPH, terminated at the last time point by addition of acetonitrile. […] An aliquot of the supernatant is assayed by LC-MS/MS to quantify the concentration of parent compound in the individual samples. […]
Field: numeric (%). Do not append units.

> print(dat)
                                   compound  observed.result
1  C[C@H](Oc1cc(OCC2(N(C)C)CC2)nc(-c2noc3c2CCC[C@@]32CCCc3sc(N)c(C#N)c32)n1)[C@@H]1CCCN1C               48
2  C[C@H](Oc1cc(Oc2nccs2)nc(-c2noc3c2CCC[C@@]32CCCc3sc(N)c(C#N)c32)n1)[C@@H]1CCCN1C               46

// next entry
Documented HLM QH [%] of C[C@H](Oc1cc(Nc2ccccn2)nc(-c2noc3c2CCC[C@@]32CCCc3sc(N)c(C#N)c32)n1)[C@@H]1CCCN1C : 42

###

Entries and their measured pIC50 follow.
Target: KRAS (G12V)::SOS1 (Homo sapiens, UniProt P01116, C118S/G12V)
Construct: KRAS (G12V) 1-169, N-terminal 6His-tag for purification, cleaved off; 6His-tag (N, cleaved yes); TEV cleavage site
Sequence (P01116 1-169 isoform P01116-2 G12V/C118S): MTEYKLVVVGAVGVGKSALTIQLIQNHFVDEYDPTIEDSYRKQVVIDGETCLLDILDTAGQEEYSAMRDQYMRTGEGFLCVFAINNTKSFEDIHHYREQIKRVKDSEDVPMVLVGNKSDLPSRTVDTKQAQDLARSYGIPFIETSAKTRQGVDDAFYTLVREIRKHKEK
Assay: KRAS::SOS1 AlphaScreen binding assay, KRAS G12V
Formally, pIC50 is defined as -log10 of the concentration c, with c in mol/L.

> print(dat)
                                   compound  readout.type  observed.result
1  C[C@H](Oc1cc(O[C@@H]2CNC2(C)C)nc(-c2noc3c2CCC[C@@]32CCCc3sc(N)c(C#N)c32)n1)[C@@H]1C[C@@H](F)CN1C         pIC50             8.70
2  C[C@H](Oc1cc(O[C@H]2CNC(C)(C)C2)nc(-c2noc3c2CCC[C@@]32CCCc3sc(N)c(C#N)c32)n1)[C@@H]1CCCN1C (single isomer, unassigned)         pIC50             8.00

Documented pIC50 of C[C@H](Oc1cc(OCC2(N(C)C)COC2)nc(-c2noc3c2CCC[C@@]32CCCc3sc(N)c(C#N)c32)n1)[C@@H]1CCCN1C : 8.70

###

Assay: Solubility measurement (DMSO solution precipitation method)
Type: physicochemical
Conditions: aqueous buffer, kinetic from dmso stock; McIlvaine buffer pH 4.5, 24 h; read-out: Solubility [μg/ml] pH 4.5
Entries and their measured solubility at 24 h follow.

> print(dat)
                                   compound  observed.result
1  C[C@H](Oc1cc(Oc2ccon2)nc(-c2noc3c2CCC[C@@]32CCCc3sc(N)c(C#N)c32)n1)[C@@H]1CCCN1C      > 138 µg/mL
2  CO[C@@H]1C[C@@H]([C@H](C)Oc2cc(O[C@@H]3CNC3(C)C)nc(-c3noc4c3CCC[C@@]43CCCc4sc(N)c(C#N)c43)n2)N(C)C1      > 171 µg/mL
3  C[C@H](Oc1cc(Sc2ncccn2)nc(-c2onc3c2CCC[C@@]32CCCc3sc(N)c(C#N)c32)n1)[C@@H]1CCCN1C      > 146 µg/mL
4  C[C@H](Oc1cc(OCC2(N(C)C)COC2)nc(-c2onc3c2CCC[C@@]32CCCc3sc(N)c(C#N)c32)n1)[C@@H]1CCCN1C      > 143 µg/mL
5  COC[C@H](C)Nc1cc(O[C@@H](C)[C@@H]2CCCN2C)nc(-c2onc3c2CCC[C@@]32CCCc3sc(N)c(C#N)c32)n1        111 µg/mL

// next entry
Documented solubility at 24 h of COc1c(OCC2(N(C)C)COC2)nc(-c2noc3c2CCC[C@@]32CCCc3sc(N)c(C#N)c32)nc1O[C@@H](C)[C@@H]1CCCN1C : > 163 µg/mL
